- assay_target: P-selectin (PS-Rg) (Homo sapiens, UniProt P16109 P16109:42-321)
- Sequence (P16109 42-321, one chain of several): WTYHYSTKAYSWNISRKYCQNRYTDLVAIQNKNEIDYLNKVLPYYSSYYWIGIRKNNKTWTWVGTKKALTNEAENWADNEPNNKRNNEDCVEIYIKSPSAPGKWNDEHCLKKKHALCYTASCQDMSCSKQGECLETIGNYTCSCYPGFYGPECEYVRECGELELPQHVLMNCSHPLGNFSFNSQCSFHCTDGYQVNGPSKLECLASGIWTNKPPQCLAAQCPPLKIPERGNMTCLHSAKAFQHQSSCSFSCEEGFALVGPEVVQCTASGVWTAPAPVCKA
- assay_summary: filter; HSMC, 37 C
- settings: tags: human IgG Fc fusion; chain copies: 2 (stated dimer)
pKd: −log10 of the molar value.
pKd values by entry

>  <binder>
PF387 (ssRNA, 2'-F C and U) RNA: GGGAGACAAGAAUAAACGCUCAACGCACCAGGAACAACGAGAACCAUCAGUAAACGCGAGCGAUUGCAUGUUCGACAGGAGGCUCACAACAGGC

>  <pKd>
10.80

$$$$
>  <binder>
PF404 (ssRNA, 2'-F C and U) RNA: GGGAGACAAGAAUAAACGCUCAAUCAGCAGUAAGCGAUCCUAUAAAGAUCAACUAGCCAAAGAUGACUUAUUCGACAGGAGGCUCACAACAGGC

>  <pKd>
10.32

$$$$
>  <binder>
PF417 (ssRNA, 2'-F C and U) RNA: GGGAGACAAGAAUAAACGCUCAAAAAGACGUAUUCGAUUCGAAACGAGAAAGACUUCAAGUGAGCCCGCAGUUCGACAGGAGGCUCACAACAGGC

>  <pKd>
10.16

$$$$
